Sourced from patent EP4678644A1

Catalogue of inhibition at 0.1 µM readings, one per entry.
# Tested system: PDE4B2 (Homo sapiens)
# Construct: expressed in transfected cells; host or cells: Flp-In-293 (Flpin-293-PDE4B2 [sic])
# Sequence (Q07343 1-564 isoform Q07343-2): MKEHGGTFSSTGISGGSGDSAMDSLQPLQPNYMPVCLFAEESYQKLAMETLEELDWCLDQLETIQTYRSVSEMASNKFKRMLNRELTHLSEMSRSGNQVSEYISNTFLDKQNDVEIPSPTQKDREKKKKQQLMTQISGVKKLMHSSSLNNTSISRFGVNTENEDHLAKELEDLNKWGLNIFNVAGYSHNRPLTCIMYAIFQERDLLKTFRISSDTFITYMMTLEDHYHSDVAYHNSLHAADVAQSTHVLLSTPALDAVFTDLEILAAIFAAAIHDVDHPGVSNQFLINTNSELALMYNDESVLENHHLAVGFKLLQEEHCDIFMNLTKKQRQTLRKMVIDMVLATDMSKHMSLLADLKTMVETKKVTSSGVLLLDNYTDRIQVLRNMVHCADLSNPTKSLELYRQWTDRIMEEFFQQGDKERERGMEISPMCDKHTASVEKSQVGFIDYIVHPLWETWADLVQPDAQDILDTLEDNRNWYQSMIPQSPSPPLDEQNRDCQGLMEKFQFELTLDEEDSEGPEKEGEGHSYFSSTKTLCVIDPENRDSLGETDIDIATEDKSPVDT
# Test method notes: PDE4B2 enzyme experiment (AMP-glo, cAMP substrate)
# Type: biochemical
# Recorded conditions: read-out: PDE4B2 Enzyme Inhibition% @100 nM
Attribute measured: inhibition at 0.1 µM (%)

{"columns": ["Smiles", "Numeric result"],
 "data": [
  ["[O-][S@+]1CCc2nc(N3CCc4c(Br)csc4C3)nc(NC3(CO)CCC3)c21", 96.6],
  ["CN1CC=C(c2ccc3c(c2)CCN(c2nc4c(c(NC5(CO)CCC5)n2)[S@+]([O-])CC4)C3)C1", 78.8],
  ["[O-][S@+]1CCc2nc(N3CCc4scc(Br)c4C3)nc(NC3(CO)CCC3)c21", 100],
  ["Cn1cnc2c1CN(c1nc3c(c(NC4(CO)CCC4)n1)[S@+]([O-])CC3)CC2", 84.7]
]}
